Sourced from patent US20070185132A1

# Tested on: Streptococcus pneumoniae IID553
# Test Description: MIC, agar dilution method, S. pneumoniae IID553
# Format: cell-based
# Assay Conditions: Mueller-Hinton agar with 5% defibrinated horse blood, 35° C., 5% CO2, 24 hours
Endpoint: MIC (µg/mL)

Illustrative cases are given below, each with its answer.
* CC(=O)NC[C@H]1CN(c2ccc(-c3ccc(C4(N)CC4)nc3)cc2)C(=O)O1 | 0.5
* CC(=O)NC[C@H]1CN(c2ccc(N3CCOCC3)c(F)c2)C(=O)O1 [Linezolid, reference compound] | 2

[A] N[C@@H]1[C@H]2CN(c3ccc(-c4ccc(N5C[C@H](Cn6ccnn6)OC5=O)cc4F)cn3)C[C@@H]12
[B] CC(=O)NC[C@H]1CN(c2ccc(-c3ccc(C4(C#N)CC4)nc3)c(F)c2)C(=O)O1
Between A and B , which one shows the larger MIC value? Respond using the label that marks the chosen record.
A
